# Tested on: UACC-257 melanoma
# experiment: NCI-60 one-dose screen, 48 h (100 = growth as untreated, 0 = no growth, -100 = all killed)
# measurement.conditions: 10 µM unless noted
This is part of a sample that, as a whole, favours compounds with a hit. Of some 83,000 tested, about 20% had one in any assay.
Hi, to clarify the labels: TRUE covers growth from 90% upward, FALSE covers anything below 90%.

• O=C(Nc1ccc(OS(=O)(=O)c2ccc(F)cc2)cc1)C1CCCCCC1 = TRUE
• COc1ccc(/C=C(\C#N)n2nnc3cc(Cl)ccc32)cc1 = FALSE
• O=C(CN1CCCCC1)Nc1nc(-c2cc3ccccc3oc2=O)cs1 = TRUE
• COc1cc2c(cc1OCCCN1CCN(CCCOc3cc4c(cc3OC)C(=O)N3CC(F)(F)C[C@H]3C=N4)CC1)N=C[C@@H]1CC(F)(F)CN1C2=O = FALSE
• COc1ccc(Nc2nc(-c3cc(O)c(C)c(C)c3O)cs2)cc1 = TRUE
• COC(=O)[C@]1(C)CCC[C@]2(C)[C@H]3C[C@H]4C(C(C)C)=C[C@]3(CC[C@H]21)[C@@H]1C(=O)CC[C@H](OCCC#N)[C@@H]14 = TRUE
• CCSc1oc(-c2ccccc2)nc1[P+](c1ccccc1)(c1ccccc1)c1ccccc1 = FALSE
• COc1ccc(C(=O)N2c3ccccc3Sc3ccccc32)c(OC)c1 = FALSE
• N#CSc1c[nH]c2cccc(/C=C/C(=O)/C=C(/C=C/c3cccc4[nH]cc(SC#N)c34)OB(F)F)c12 = FALSE
• Cc1ccc2c(c1)=C/C(=C\c1cc(-c3ccccc3)oc1O)C(=O)N=2 = TRUE
• O=C(O)CCCN1C(=O)/C(=C/c2cn(-c3ccccc3)nc2-c2ccc([N+](=O)[O-])cc2)SC1=S = FALSE
• Oc1ccc(Cl)cc1/C=N\NC(=S)N/N=C/c1cc(Cl)ccc1O = FALSE
• O=c1[nH]c(-c2ccccc2)nc2sc3cc(O)ccc3c12 = TRUE
• N#Cc1c(-c2ccccc2)cc(-c2ccccc2)n(CCCC(=O)Nc2ccccc2N)c1=O = FALSE
• O=C(CSc1nnc(-c2cnccn2)n1-c1ccccc1)c1ccc(Cl)cc1 = TRUE
• Cc1ccc(NC(=O)Cn2cc(CN3CCN(c4ccnc5cc(Cl)ccc45)CC3)nn2)cc1 = TRUE
• CNC(=O)c1ccccc1Oc1nc(Nc2cc(OC)c(OC)c(OC)c2)ncc1Br = FALSE
• c1ccc([P+](c2ccccc2)(c2ccccc2)c2ccc3c4ccc([P+](c5ccccc5)(c5ccccc5)c5ccccc5)c5cccc(c6cccc2c63)c54)cc1 = FALSE
• COc1c(C(=O)Nc2ccc(C)c(Br)c2)ccc2ccccc12 = TRUE
• O=C(O)c1cn(C2CC2)c2cc(N3CCN(C(=O)N(c4ccccc4)c4nc(-c5ccccc5)cs4)CC3)c(F)cc2c1=O = FALSE
• C=C1C(=O)O[C@H]2[C@H]1CC/C(Cn1cc(-c3ccccc3)nn1)=C\CC[C@@]1(C)O[C@@H]21 = FALSE
• Cc1ccc(Nc2cc(N)nc(N)n2)cc1Cl = TRUE
• CCNCCNc1cc(C2CCCCC2)c(C#N)c2nc3ccccc3n12 = FALSE
• Nc1c(C(=O)Nc2ccncc2)sc2nc3c(cc12)C(O)CCC3 (centres undefined) = TRUE
• O=C(/C=C/c1cccc(Cl)c1)c1ccc(Nc2nc(Nc3ccc(F)cc3)nc(Nc3ccc(Cl)cc3)n2)cc1 = TRUE
• CC(=O)c1c(C)nc(SCC(=O)Nc2cccc(O)c2)n1-c1ccc(Cl)cc1 = TRUE
• COc1ccc2c(c1OC)CO[C@@H]2[C@H]1c2c(cc3c(c2OC)OCO3)CCN1S(=O)(=O)c1cn(C)cn1 = FALSE
• COC1=CC(c2ccc[nH]2)=N/C1=C\c1[nH]c(C)c(C(=O)OC(C)C)c1C = FALSE
• O=C1C(Cl)=C(NCCCCCCNC2=C(Cl)C(=O)c3ccccc3C2=O)C(=O)c2ccccc21 = FALSE
• COc1ccc(\C=N/N=C(N)/C(N)=N\N=C/c2ccc(OC)cc2)cc1 = TRUE
• CCCCNCCCCCNc1cc(OC)cc2cccnc12 = TRUE
• COc1cc2nc3cc([N+](=O)[O-])ccc3c(NCCNCC(C)O)c2cc1OC (centres undefined) = FALSE
• CC/C(=C(/c1ccc(Cl)cc1)c1ccc(OCCN(C)C)cc1)c1ccc(Cl)cc1 = FALSE
• COc1cc2cc(NCc3cccc(Cl)c3)nc(C)c2cc1OC = FALSE
